target: OX2 receptor (Homo sapiens, UniProt O43614); construct: expressed in transfected cells; host or cells: unnamed cell line stably co-expressing apoaequorin and OX2 receptor, cultured in Ham's F12 with G418 and Zeocin; experiment: Functional assay for in vitro evaluation of OX2 receptor agonist activity (aequorin light emission, increase in intracellular calcium); type: cell-based; settings: OX2R Agonism, Table 2, comparative examples (compounds described in PCT/EP2014/062349); same experimental methodology
Sequence (O43614 whole entry): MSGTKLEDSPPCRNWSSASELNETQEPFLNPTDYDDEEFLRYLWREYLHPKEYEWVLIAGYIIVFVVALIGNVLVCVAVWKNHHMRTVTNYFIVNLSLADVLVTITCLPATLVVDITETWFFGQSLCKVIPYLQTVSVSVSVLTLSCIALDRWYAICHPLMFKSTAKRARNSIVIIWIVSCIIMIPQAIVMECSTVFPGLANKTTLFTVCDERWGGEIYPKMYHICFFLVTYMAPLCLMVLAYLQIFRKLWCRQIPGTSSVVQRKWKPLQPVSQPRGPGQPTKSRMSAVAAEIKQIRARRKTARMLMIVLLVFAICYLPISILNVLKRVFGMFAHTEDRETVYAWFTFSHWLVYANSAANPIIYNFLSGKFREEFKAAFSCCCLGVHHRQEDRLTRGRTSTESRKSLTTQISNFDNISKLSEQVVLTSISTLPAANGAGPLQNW
Please provide measured log10 of EC50 for the entries that follow.
Heads up, the numbers here are log10 of EC50 in nM units.

Here's what some known entries look like.
Data request, read-out log10 of EC50, for CC(=O)c1ccc(OC2=C(Cl)C(=O)c3ccccc3C2=O)c(N)c1 3.64

Reported log10 of EC50, compound Nc1ccc(Cl)cc1OC1=C(Cl)C(=O)c2ccccc2C1=O : ____ 2.87

So what's the measured log10 of EC50 for this one? Nc1ccccc1OC1=C(Cl)C(=O)c2ccccc2C1=O 2.71

Could you share which log10 of EC50 value was measured for Cc1ccc(OC2=C(Cl)C(=O)c3ccccc3C2=O)c(N)c1 ? 2.38

Query: log10 of EC50; subject: Nc1cc(Cl)ccc1OC1=C(Cl)C(=O)c2ccccc2C1=O 2.87

Returns the measured log10 of EC50 for the input compound. Input: Cc1cc(N)c(OC2=C(Cl)C(=O)c3ccccc3C2=O)cc1C 2.83

Each compound below has a reported value. Please supply its log10 of EC50.
1. Cc1ccc(C)c(OC2=C(Cl)C(=O)c3ccccc3C2=O)c1N
2. COC(=O)c1ccc(OC2=C(Cl)C(=O)c3ccccc3C2=O)c(N)c1
3. Nc1cc(F)ccc1OC1=C(Cl)C(=O)c2ccccc2C1=O
4. Nc1ccc(F)cc1OC1=C(Cl)C(=O)c2ccccc2C1=O
5. Nc1cc(C(F)(F)F)ccc1OC1=C(Cl)C(=O)c2ccccc2C1=O
6. Nc1cc(Cl)cc(Cl)c1OC1=C(Cl)C(=O)c2ccccc2C1=O

[2.18, 3.61, 2.76, 2.59, 2.85, 2.59]

* * *

target: OX2 receptor (Homo sapiens); construct: expressed in transfected cells; host or cells: unnamed cell line stably co-expressing apoaequorin and OX2 receptor, cultured in Ham's F12 with G418 and Zeocin; assay: Functional assay for in vitro evaluation of OX2 receptor agonist activity (aequorin light emission, increase in intracellular calcium); type: cell-based; details: OX2R Agonism, Table 1; cell line co-expressing apoaequorin and OX2 receptor; related to the maximum effect induced by the orexin peptide
Rule for this label: criterion met means EC50 is less than 60 nM; criterion not met means EC50 is at least 60 nM.

# strict comparison: is reported EC50 < 60 nM? input = COc1ccc(N)c(OC2=C(Cl)C(=O)c3ccccc3C2=O)c1Cl [Example 2] criterion met

More entries:
Determine whether this compound shows EC50 lower than 60 nM (ties excluded): Cc1ccc(OC2=C(Cl)C(=O)c3ccccc3C2=O)c(N)c1C [Example 7] criterion met

EC50 strictly < 60 nM for this compound? Cc1cc(C)c(N)c(OC2=C(Cl)C(=O)c3ccccc3C2=O)c1C [Example 8] criterion met

Below 60 nM on EC50? Entry Cc1cc(Cl)cc(N)c1OC1=C(Cl)C(=O)c2ccccc2C1=O [Example 5] criterion not met

A record lists Cc1cc(C)c(OC2=C(Cl)C(=O)c3ccccc3C2=O)c(N)c1C [Example 9] . Is its EC50 below 60 nM? criterion not met

Is 60 nM strictly greater than the compound's reported EC50? compound: Cc1c(Cl)ccc(OC2=C(Cl)C(=O)c3ccccc3C2=O)c1N [Example 3] criterion not met

In the record for Cc1cc(Br)cc(N)c1OC1=C(Cl)C(=O)c2ccccc2C1=O [Example 6] , is EC50 less than 60 nM? criterion not met

For this compound, is EC50 lower than 60 nM? COc1ccc(N)c(OC2=C(Cl)C(=O)c3ccccc3C2=O)c1C [Example 1] criterion met
